Readings of EC50 for the listed binders
# target-desc: T1, human PACAP38 (human, not fully specified; C-terminal lysine is amidated; N-terminal or C-terminal biotin in the HTRF and PC-12 cell binding assays)
# T1 construct: synthetic peptide, bought; also called huPACAP (1-38)
# T1 peptide: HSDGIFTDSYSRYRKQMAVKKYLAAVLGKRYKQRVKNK
# assay-comment: HTRF binding, biotin-PACAP38
property-name: EC50 (pM)

1. anti-PACAP antibody Ab2 (antibody, human IgG1, kappa, N297A, V domains shown, full-length rabbit/human chimeric antibody) VH: QSVEESGGRLVTPGTPLTLTCTVSGFSLSGAAMNWVRQAPGKGLEWIGVIGNSGSTYYASWAKGRFTISKTSSTTVDLKMTSPTTEDTATYFCARGGGEFFIWGQGTLVTVSS VL: AQVLTQTPSPVSAAVGGTVTINCQSSESVYKNNYLSWYQQKPGQPPKFLIYQASNLADGVPSRFKGSGSGTQFTLTISDLECDDAATYYCAGGYSTYMSGFGGGTEVVVKR	350
2. anti-PACAP antibody Ab17 (antibody, human IgG1, kappa, N297A, V domains shown, full-length rabbit/human chimeric antibody) VH: QSVEESGGRLVTPGTPLTLTCTVSGFSLSSAAMNWVRQAPGKGLEWIGIFDPYSSTYYASWAKGRFTISKTSSTTVDLKMTSPTTEDTATYFCARGGGEFFIWGPGTLVTVSS VL: AQVLTQTPSSVSAAVGGTVTINCQSSQSVYKNKYLSWYQQKVGQPPKFLIYQASNLASGVPSRFKGSGSGTQFTLTISDLECDDAATYYCAGGYSGNMVDFGGGTEVVVKR	460
3. anti-PACAP antibody Ab14 (antibody, human IgG1, kappa, N297A, V domains shown, full-length rabbit/human chimeric antibody) VH: QSVEASGGRLVTPGTPLTLTCTVSGFSLSSAAMNWVRQAPGKGLEWIGFIEYSKNIVYASWAKGRFTISKVSSTTVDLKMTSPTTEDTATYFCARGGGEFFIWGQGTLVTVSS VL: AQVLTQTPSSVSAAVGGTVTINCQSSQSVYSNNRLSYYQQKPGQPPKLLIYEASSLAYGVPSRFKGSGSGTQFTLTISDLECDDAATYYCAGAYSNSIYSFGGGTEVVVKR	570
4. anti-PACAP antibody Ab23 (antibody, human IgG1, kappa, N297A, V domains shown, full-length rabbit/human chimeric antibody; PACAP38 specific) VH: QSVEESGGRLVTPGTPLTLTCTVSGFSLNNYAMSWVRQAPGKGLEWIGIMGVNDITYYASWAKGRFTISKTSTTVDLKMTSLTTEDTATYFCTREIRDDGDSSDKLWGPGTLVTVSS VL: AIKMTQTPSSVSAAVGGTVTINCQASEDIYTNLAWYQQKPGQPPNLLIYDASDLASGVPSRFSGSGDGTQFTLTISAVQCEDAATYYCQGVAWSSNTGYGSAFGGGTEVVVKR	560
5. anti-PACAP antibody Ab6 (antibody, human IgG1, kappa, N297A, V domains shown, full-length rabbit/human chimeric antibody) VH: LEQSGGGAEGGLVKPGGSLELCCKASGFSLSSTYWMCWVRQAPGKGLEWIGCIYTGSGSTDYASWVNGQFTLSRDIDQSTGCLQLNSLTVADTAMYYCTKNFDLWGPGTLVTVSS VL: AQVLTQTPSSVSAAVGGTVTINCQSSPSVYSNNYLSWFQQKPGQPPKGLIADASTLASGVPSRFKGSGSGTQFTLTISGVQCDDAAAYYCLGYYDCGSTDCHAFGGGTEVVVKR	500
6. anti-PACAP antibody Ab13 (antibody, human IgG1, kappa, N297A, V domains shown, full-length rabbit/human chimeric antibody) VH: QSVEESGGRLVTPGTPLTLTCTVSGFSLSSAAMNWVRQAPGKGLEWIGIIDNTAGTYYAPWAKGRFTISKTSSTTVDLKMTSPTTEDTATYFCARGGGEFFIWGPGTLVTVSS VL: AQVLTQTPSSVSAAVGGTVTINCQSSQSVHDGSYLSWYQQKPGQPPNFLIYQASNLASGVPSRFKGSGSGTQFTLTISDLECDDAATYYCAGGYSSNICGFGGGTEVVVKR	480
7. anti-PACAP antibody Ab9 (antibody, human IgG1, kappa, N297A, V domains shown, full-length rabbit/human chimeric antibody) VH: EQSGGGAEGGLVKPGGSLKLSCKASGFTISRDYWICWVRQAPGKGLEWIGCISAGGGSTDYANWVNGRFTLSRDIDQSTGCLQLNSLTDADTAMYYCAGNLEIWGQGTLVTVSS VL: AQVLTQTPSSVSAAVGGTVTINCQSSPSIYSGAFLSWFQQKPGQPPKFLIYEASKLASGVPSRFSGSGSGTQFTLTISDVQCDDAATYYCLGFYDCSSVDCHAFGGGTEVVVKR	230
8. anti-PACAP antibody Ab4 (antibody, human IgG1, kappa, N297A, V domains shown, full-length rabbit/human chimeric antibody) VH: QSVEESGGRLVTPGTPLTLTCTVSGFSLSSYDMSWVRQAPGKGLEYIGIINTNDDTWYASWVKGRFTISKTSSTTVDLKMTSLTTEDTATYFCARISDAYVFDYAYYFTLWGQGTLVTVSS VL: ALVMTQTPSSVSAAVGGTVTINCLASQNIYNSLAWYQQKPGQPPKLLIYRASTLASGVSSRFKGSGSGTQFTLTISGVECADAATYYCQQGAGADNIGNPFGGGTEVVVKR	660
9. anti-PACAP antibody Ab7 (antibody, human IgG1, kappa, N297A, V domains shown, full-length rabbit/human chimeric antibody) VH: QSVEESGGRLVTPGTPLTLTCTASGIDLSGYAMGWVRQAPGKGLEWIGDISTYGTTDYASWVNGRFTISRTSTTVTLKMTSLTTEDTATYFCARDYWLSLWGPGTLVTVSS VL: AAVLTQTPSPVSAAVGGTVTIKCQSSQSVYDNNALAWYQQKPGQPPKLLIYAASTLASGVPSRFKGSGSGTQFTLTINGVQCDDAATYYCLGGYDDPADNAFGGGTEVVVKR	450
10. anti-PACAP antibody Ab12 (antibody, human IgG1, kappa, N297A, V domains shown, full-length rabbit/human chimeric antibody) VH: QSVEESGGRLVTPGTPLTLTCTASGFSLSSYAMGWVRQAPGKGLEWIGDISTYGTTDYASWVYGRFTISRTSTTVTLKMTSLTTEDTATYFCARDYWLSLWGQGTLVTVSS VL: AAVLTQTPSPVSAAVGGTVTIKCQSSQSVYDNNALAWYQQKPGQPPKLLIYAASTLASGVPSRFSGSGSGTEFTLTISGVQCDDAATYYCLGGYYDPADNAFGGGTEVVVKR	510

These entries and their values trace back to patent US20190233498A1.
